// data source = ChEMBL document CHEMBL1129060

target: Adenosine receptor A1 (Rattus norvegicus, UniProt P25099); assay: Displacement of [3H]DPCPX (without GTP) from Adenosine A1 receptor of rat cortical membrane; conditions: read-out: Ki
Sequence (P25099 whole entry): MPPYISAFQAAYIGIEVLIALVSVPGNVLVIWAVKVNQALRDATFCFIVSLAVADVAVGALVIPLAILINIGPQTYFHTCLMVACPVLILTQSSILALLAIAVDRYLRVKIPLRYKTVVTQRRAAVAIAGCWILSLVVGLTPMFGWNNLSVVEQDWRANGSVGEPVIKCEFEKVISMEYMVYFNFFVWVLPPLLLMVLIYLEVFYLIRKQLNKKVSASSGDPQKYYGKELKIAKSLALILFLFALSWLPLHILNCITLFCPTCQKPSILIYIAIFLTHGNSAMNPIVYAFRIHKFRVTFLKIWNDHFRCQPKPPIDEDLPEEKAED
measurementName: pKi
Hey, just a heads up that pKi is the negative log base 10 of the concentration in molar.

Could you tell me which pKi is on file for CCCNc1nc2c(NC3CCCC3)ncnc2n1[C@@H]1O[C@H](CO)[C@@H](O)[C@H]1O ?
6.46

Bench note: what pKi did OC[C@H]1O[C@@H](n2c(NC3CCCC3)nc3c(NC4CCCC4)ncnc32)[C@H](O)[C@@H]1O show?
5.96

# lookup: pKi of CNc1nc2c(N)ncnc2n1[C@@H]1O[C@H](CO)[C@@H](O)[C@H]1O
5.62
